test: Test 1: Solubility Test (water as test medium, 37° C., HPLC); assay type: physicochemical; conditions: water, 37 °C, water, thermodynamic from solid, water 37° C., 200 rpm paddles; at 30 minutes after the beginning of the test and after; read-out: concentration of Compound A in solubility test (FIG. 1)
quantityMeasured: solubility

I am curious: what solubility value has been reported for COc1cc2[nH]c(=O)c3nn(C(OC(=O)OC(C)C)C(C)C)nc3c(=O)c2cc1OC (single isomer, unassigned) ? < 3 µg/mL
